# ASSAY_PROTOCOL: Rat pharmacokinetics, i.v. bolus
# Assay type: in vivo, Sprague-Dawley rats
# TEST_CONDITIONS: rat, in vivo, iv; male Sprague-Dawley rats, single 5 mg/kg slow i.v. bolus, plasma, LC-MS/MS, noncompartmental, n = 3 to 5/dose; read-out: Tmax
# Procedure: In one of three rat studies reported here, a single 5-, 15-, or 45-mg/kg dose of CD101 was administered by slow i.v. bolus (∼3 min) to Sprague-Dawley rats (n = 3 to 5/dose). […] For each of the pharmacokinetic studies, whole-blood samples (K3EDTA as anticoagulant) were collected and centrifuged within 30 min of collection. […] When necessary, dilutions with blank matrix were made for samples that quantified above the upper limit of quantitation. […]
Starred links: 1 amine or outer side, 2 acyl side, 3 side chain; linkers in the order of their positions; H or OH if unused. Positions of bridges follow the written chain, without caps; N, C: chain ends. Non-standard residues stand in square brackets, D forms with d. Residues, ends and D or L forms follow the SMILES beside them. *: point of attachment. Orn(4R-OH,5R-OCH2CH2NMe3+) = C[N+](C)(C)CCO[C@@H](N[*:3])[C@H](O)C[C@H](N[*:1])C(=O)[*:2]; pTerphenylCO(4''-OnC5H11) = CCCCCOc1ccc(-c2ccc(-c3ccc(C(=O)*)cc3)cc2)cc1; hTyr(3S-OH,4S-OH) = N[C@H](C(=O)O)[C@H](O)[C@@H](O)c1ccc(O)cc1; Pro(3S-OH,4S-Me) = C[C@H]1CN[C@H](C(=O)O)[C@H]1O; Hyp = O=C(O)[C@@H]1C[C@@H](O)CN1
VALUE_KIND: Tmax (min)
The reply should contain only the number, in min.

Q) Specify measured Tmax for CCCCCOc1ccc(-c2ccc(-c3ccc(C(=O)N[C@H]4C[C@@H](O)[C@@H](OCC[N+](C)(C)C)NC(=O)[C@@H]5[C@@H](O)[C@@H](C)CN5C(=O)[C@H]([C@@H](C)O)NC(=O)[C@H]([C@H](O)[C@@H](O)c5ccc(O)cc5)NC(=O)[C@@H]5C[C@@H](O)CN5C(=O)[C@H]([C@@H](C)O)NC4=O)cc3)cc2)cc1 [CD101] ({pTerphenylCO(4''-OnC5H11)}-[Orn(4R-OH,5R-OCH2CH2NMe3+)]T[Hyp][hTyr(3S-OH,4S-OH)]T[Pro(3S-OH,4S-Me)]; lactam 1-C) .
A) 4.98

---

# ASSAY_PROTOCOL: Mouse pharmacokinetics, i.v. bolus
# TEST_CONDITIONS: in vivo, iv, male ICR (CD-1) mice, single 1 mg/kg slow i.v. bolus, plasma, LC-MS/MS, noncompartmental from mean profile, n = 3/time point
Starred links: 1 amine or outer side, 2 acyl side, 3 side chain; linkers in the order of their positions; H or OH if unused. Positions of bridges follow the written chain, without caps; N, C: chain ends. Non-standard residues stand in square brackets, D forms with d. Residues, ends and D or L forms follow the SMILES beside them. *: point of attachment. Orn(4R-OH,5R-OCH2CH2NMe3+) = C[N+](C)(C)CCO[C@@H](N[*:3])[C@H](O)C[C@H](N[*:1])C(=O)[*:2]; pTerphenylCO(4''-OnC5H11) = CCCCCOc1ccc(-c2ccc(-c3ccc(C(=O)*)cc3)cc2)cc1; hTyr(3S-OH,4S-OH) = N[C@H](C(=O)O)[C@H](O)[C@@H](O)c1ccc(O)cc1; Pro(3S-OH,4S-Me) = C[C@H]1CN[C@H](C(=O)O)[C@H]1O; Hyp = O=C(O)[C@@H]1C[C@@H](O)CN1
VALUE_KIND: AUC(0-t) (ng·h/mL)
The reply should contain only the number, in ng·h/mL.

Q) Specify measured AUC(0-t) for CCCCCOc1ccc(-c2ccc(-c3ccc(C(=O)N[C@H]4C[C@@H](O)[C@@H](OCC[N+](C)(C)C)NC(=O)[C@@H]5[C@@H](O)[C@@H](C)CN5C(=O)[C@H]([C@@H](C)O)NC(=O)[C@H]([C@H](O)[C@@H](O)c5ccc(O)cc5)NC(=O)[C@@H]5C[C@@H](O)CN5C(=O)[C@H]([C@@H](C)O)NC4=O)cc3)cc2)cc1 [CD101] ({pTerphenylCO(4''-OnC5H11)}-[Orn(4R-OH,5R-OCH2CH2NMe3+)]T[Hyp][hTyr(3S-OH,4S-OH)]T[Pro(3S-OH,4S-Me)]; lactam 1-C) .
A) 87300

---

# ASSAY_PROTOCOL: Rat pharmacokinetics, i.v. bolus
# Assay type: in vivo, Sprague-Dawley rats
# TEST_CONDITIONS: rat, in vivo, iv, 15 mg/kg, male Sprague-Dawley rats, single 15 mg/kg slow i.v. bolus, plasma, LC-MS/MS, noncompartmental, n = 3 to 5/dose
Starred links: 1 amine or outer side, 2 acyl side, 3 side chain; linkers in the order of their positions; H or OH if unused. Positions of bridges follow the written chain, without caps; N, C: chain ends. Non-standard residues stand in square brackets, D forms with d. Residues, ends and D or L forms follow the SMILES beside them. *: point of attachment. Orn(4R-OH,5R-OCH2CH2NMe3+) = C[N+](C)(C)CCO[C@@H](N[*:3])[C@H](O)C[C@H](N[*:1])C(=O)[*:2]; pTerphenylCO(4''-OnC5H11) = CCCCCOc1ccc(-c2ccc(-c3ccc(C(=O)*)cc3)cc2)cc1; hTyr(3S-OH,4S-OH) = N[C@H](C(=O)O)[C@H](O)[C@@H](O)c1ccc(O)cc1; Pro(3S-OH,4S-Me) = C[C@H]1CN[C@H](C(=O)O)[C@H]1O; Hyp = O=C(O)[C@@H]1C[C@@H](O)CN1
VALUE_KIND: AUC(0-t) (µg·h/mL)
The reply should contain only the number, in µg·h/mL.

Q) Specify measured AUC(0-t) for CCCCCOc1ccc(-c2ccc(-c3ccc(C(=O)N[C@H]4C[C@@H](O)[C@@H](OCC[N+](C)(C)C)NC(=O)[C@@H]5[C@@H](O)[C@@H](C)CN5C(=O)[C@H]([C@@H](C)O)NC(=O)[C@H]([C@H](O)[C@@H](O)c5ccc(O)cc5)NC(=O)[C@@H]5C[C@@H](O)CN5C(=O)[C@H]([C@@H](C)O)NC4=O)cc3)cc2)cc1 [CD101] ({pTerphenylCO(4''-OnC5H11)}-[Orn(4R-OH,5R-OCH2CH2NMe3+)]T[Hyp][hTyr(3S-OH,4S-OH)]T[Pro(3S-OH,4S-Me)]; lactam 1-C) .
A) 562

---

# ASSAY_PROTOCOL: Rat pharmacokinetics, i.v. bolus
# Assay type: in vivo, Sprague-Dawley rats
# TEST_CONDITIONS: rat, in vivo, iv; one value for the species as given in the abstract (doses 5, 15, 45 mg/kg, both sexes in Table 1)
Starred links: 1 amine or outer side, 2 acyl side, 3 side chain; linkers in the order of their positions; H or OH if unused. Positions of bridges follow the written chain, without caps; N, C: chain ends. Non-standard residues stand in square brackets, D forms with d. Residues, ends and D or L forms follow the SMILES beside them. *: point of attachment. Orn(4R-OH,5R-OCH2CH2NMe3+) = C[N+](C)(C)CCO[C@@H](N[*:3])[C@H](O)C[C@H](N[*:1])C(=O)[*:2]; pTerphenylCO(4''-OnC5H11) = CCCCCOc1ccc(-c2ccc(-c3ccc(C(=O)*)cc3)cc2)cc1; hTyr(3S-OH,4S-OH) = N[C@H](C(=O)O)[C@H](O)[C@@H](O)c1ccc(O)cc1; Pro(3S-OH,4S-Me) = C[C@H]1CN[C@H](C(=O)O)[C@H]1O; Hyp = O=C(O)[C@@H]1C[C@@H](O)CN1
VALUE_KIND: half-life (h)
The reply should contain only the number, in h.

Q) Specify measured half-life for CCCCCOc1ccc(-c2ccc(-c3ccc(C(=O)N[C@H]4C[C@@H](O)[C@@H](OCC[N+](C)(C)C)NC(=O)[C@@H]5[C@@H](O)[C@@H](C)CN5C(=O)[C@H]([C@@H](C)O)NC(=O)[C@H]([C@H](O)[C@@H](O)c5ccc(O)cc5)NC(=O)[C@@H]5C[C@@H](O)CN5C(=O)[C@H]([C@@H](C)O)NC4=O)cc3)cc2)cc1 [CD101] ({pTerphenylCO(4''-OnC5H11)}-[Orn(4R-OH,5R-OCH2CH2NMe3+)]T[Hyp][hTyr(3S-OH,4S-OH)]T[Pro(3S-OH,4S-Me)]; lactam 1-C) .
A) 39

---

# ASSAY_PROTOCOL: Rat pharmacokinetics, i.v. bolus
# Type: in vivo, Sprague-Dawley rats
# TEST_CONDITIONS: rat, in vivo, iv, 5 mg/kg, female Sprague-Dawley rats, single 5 mg/kg slow i.v. bolus, plasma, LC-MS/MS, noncompartmental, n = 3 to 5/dose
Starred links: 1 amine or outer side, 2 acyl side, 3 side chain; linkers in the order of their positions; H or OH if unused. Positions of bridges follow the written chain, without caps; N, C: chain ends. Non-standard residues stand in square brackets, D forms with d. Residues, ends and D or L forms follow the SMILES beside them. *: point of attachment. Orn(4R-OH,5R-OCH2CH2NMe3+) = C[N+](C)(C)CCO[C@@H](N[*:3])[C@H](O)C[C@H](N[*:1])C(=O)[*:2]; pTerphenylCO(4''-OnC5H11) = CCCCCOc1ccc(-c2ccc(-c3ccc(C(=O)*)cc3)cc2)cc1; hTyr(3S-OH,4S-OH) = N[C@H](C(=O)O)[C@H](O)[C@@H](O)c1ccc(O)cc1; Pro(3S-OH,4S-Me) = C[C@H]1CN[C@H](C(=O)O)[C@H]1O; Hyp = O=C(O)[C@@H]1C[C@@H](O)CN1
VALUE_KIND: half-life

Q) Specify measured half-life for CCCCCOc1ccc(-c2ccc(-c3ccc(C(=O)N[C@H]4C[C@@H](O)[C@@H](OCC[N+](C)(C)C)NC(=O)[C@@H]5[C@@H](O)[C@@H](C)CN5C(=O)[C@H]([C@@H](C)O)NC(=O)[C@H]([C@H](O)[C@@H](O)c5ccc(O)cc5)NC(=O)[C@@H]5C[C@@H](O)CN5C(=O)[C@H]([C@@H](C)O)NC4=O)cc3)cc2)cc1 [CD101] ({pTerphenylCO(4''-OnC5H11)}-[Orn(4R-OH,5R-OCH2CH2NMe3+)]T[Hyp][hTyr(3S-OH,4S-OH)]T[Pro(3S-OH,4S-Me)]; lactam 1-C) .
A) 35.7 h
